System: Staphylococcus aureus Sa2 (MRSA, cystic fibrosis isolate)
Assay Notes: growth reduction vs untreated control (viable cell count); higher = stronger antibacterial activity; extreme values may be limits of the assay
Run Conditions: 0.1 mM; 24 h
Structures can show the parent of a compound that is named as a salt.
In this section, each of the compounds is paired with its reported growth reduction.
Readout Name: growth reduction (%)

> print(dat)
                                    compound  numeric.value
 1  CO[C@@H](Cc1ccc(OCCc2nc(-c3ccccc3)oc2C)c2ccsc12)C(=O)O [Aleglitazar]             90
 2  CC(C)COc1ccc(CNC(=O)N(Cc2ccc(F)cc2)C2CCN(C)CC2)cc1 [Pimavanserin]            100
 3  CC(C)(O)c1ccccc1CC[C@@H](SCC1(CC(=O)O)CC1)c1cccc(/C=C/c2ccc3ccc(Cl)cc3n2)c1 [Montelukast (sodium)]            100
 4  Cc1ncc(NC(=O)c2ccc(CN3CCN(C)CC3)c(C(F)(F)F)c2)cc1Nc1nccc(-c2cccnc2)n1 [Flumatinib]            100
 5  Cc1ccc(NC(=O)C2(c3ccc4c(c3)OC(F)(F)O4)CC2)nc1-c1cccc(C(=O)O)c1 [Lumacaftor]             96
 6  C#C[C@]1(O)CC[C@H]2[C@@H]3CCc4cc(OC5CCCC5)ccc4[C@H]3CC[C@@]21C [Quinestrol]             99
 7  Clc1ccc(C(Cn2ccnc2)OCc2c(Cl)cccc2Cl)c(Cl)c1 (configuration not stated) [Isoconazole (nitrate)]            100
 8  Cc1nc2sccn2c(=O)c1CCN1CCC(=C(c2ccc(F)cc2)c2ccc(F)cc2)CC1 [Ritanserin]            100
 9  O=C(O)Cc1ccccc1Nc1c(Cl)cccc1Cl [Diclofenac]            100
10  CN(C)CCOc1ccc(/C(=C(/CCCl)c2ccccc2)c2ccccc2)cc1 [Toremifene (citrate)]            100
11  CCCCCCCCCCCC[N+](C)(C)CCOc1ccccc1 [Domiphen (bromide)]            100
12  O=C(OCC(O)CO)c1ccccc1Nc1ccnc2cc(Cl)ccc12 (configuration not stated) [Glafenine]            100
13  CC(=O)Oc1cc(C)c(OC(C)=O)c2ccccc12 [Vitamin K4]             97
14  COc1cc2c(Oc3ccc(NC(=O)C4(C(=O)Nc5ccc(F)cc5)CC4)cc3F)ccnc2cc1OCCCN1CCOCC1 [Foretinib]             99
15  C[C@H](Nc1cc(-c2cnn(C)c2)cc(Nc2cnccn2)n1)c1ccc(F)cc1 [Ilginatinib]             94
16  OCCN1CCN(CCCN2c3ccccc3Sc3ccc(Cl)cc32)CC1 [Perphenazine]            100
17  C=CC(=O)Nc1cc(Nc2nccc(-c3cn(C4CC4)c4ccccc34)n2)c(OC)cc1N(C)CCN(C)C [Almonertinib (hydrochloride)]            100

###

System: Staphylococcus aureus Sa2 (MRSA, cystic fibrosis isolate)
Assay Notes: growth reduction vs untreated control (OD550); higher = stronger antibacterial activity
Run Conditions: 0.1 mM; 24 h
Readout Name: growth reduction

Compound	Readout Name	Result
C[C@H](CCC(=O)O)[C@H]1CC[C@H]2[C@@H]3CC[C@@H]4C[C@H](O)CC[C@]4(C)[C@H]3C[C@H](O)[C@]12C [Deoxycholic acid]	growth reduction	98.3%
COc1cccc(-c2ccc(NC(=O)C3=C(C(=O)O)CCC3)c(F)c2)c1 [Vidofludimus]	growth reduction	93%
C=C(C)[C@@H]1CC[C@]2(C(=O)O)CC[C@]3(C)[C@H](CC[C@@H]4[C@@]5(C)CC[C@H](OC(=O)CC(C)(C)C(=O)O)C(C)(C)[C@@H]5CC[C@]43C)[C@@H]12 [Bevirimat]	growth reduction	96.7%
Cc1cc(OCCCS(C)(=O)=O)cc(C)c1-c1cccc(COc2ccc3c(c2)OC[C@H]3CC(=O)O)c1 [Fasiglifam]	growth reduction	100%
C=C[C@@H]1C[C@]1(NC(=O)[C@@H]1C[C@@H](Oc2ncc(OC)c3ccc(Cl)cc23)CN1C(=O)[C@@H](NC(=O)OC(C)(C)C)C(C)(C)C)C(=O)NS(=O)(=O)C1CC1 [Asunaprevir]	growth reduction	100%
CC(O)c1cc(C(=O)N[C@@H](C)Cn2ccc(-c3ccc(C#N)c(Cl)c3)n2)n[nH]1 (stereo partly specified) [Darolutamide]	growth reduction	100%
